Target: BoNT/B4 (Clostridium botulinum)
Test: KinExA flow fluorimetry, IgG in solution
Measured Kd by item
Output spec: scalar in nM, unitless text.

**Query** Quick check: Kd of 2B23 IgG (antibody, V domains shown) VH: EVQLLESGGGLVQPGGSLRLSCAASGFTFSNYPMSWVRQAPGKGLAWVSSLTASGDNTFYADSVKGRFTISRDNSNNTLYLQMHSLRAEDTAVYYCAKALVGRYDISTGYYRPVMDSWGQGTLVTVSS VL: DIQMTQSPPSLSASVGDRVTITCRTSQGFTSALAWYQQKPGEPPKLLIYDASKLESGVPSRFSGSGSGTNFALTISSLQPEDFATYFCQQSNSYPLTFGGGTKVEIKR ?
**Result** 0.0552

**Query** Let us now turn to 1B10.1 IgG (antibody, V domains shown) VH: QVQLVESGGGVVQPGRSLRLSCAASGFTFSHYGMHWVRQSPGKGLEWVAVIWYDGRNPYYAASVKGRFTISRDNDKNTLYLQMNSLRAEDTAVYYCVKDLTRFHDTTFGVFEMWGPGTTVTVSS VL: EIVLTQSPSFVSASVGDRVTITCRASQGISSWLAWYQQKPGKAPKLLIYAASSLQSGVPSRFSGSGSGTEFTLTISSLQPDDFATYYCQQYSSLYTFGQGTKVDIKR
**Result** 0.00047

**Query** Let us now turn to 1B18 IgG (antibody, V domains shown) VH: EVQLVQSGGGLVQPGGSRRLSCAASGFYFNAYWMTWVRQAPGKGLEWVANINLDGTEIYYLDSVKGRFTVSRDNVKNSVFLQMSSLRVEDTAVYFCARLEWGGRNGWVSPWGQGTLVTVSS VL: DVVMTQSPSSVSASVGDRVTITCRASQSISSYLNWYQQRPGKAPKLLIFAASSLQSAVPSRFSGSGSGTDFTLTISSLQPEDFATYYCQQSYSTPPTFGQGTKVEIKR
**Result** 0.021

Data provenance is patent US20150197559A1.
